Tested on: human red blood cells (hRBC)
settings: red cells of human, 1 h
Starred links: 1 amine or outer side, 2 acyl side, 3 side chain; linkers in the order of their positions; H or OH if unused. Positions of bridges follow the written chain, without caps; N, C: chain ends. Non-standard residues stand in square brackets, D forms with d. Residues, ends and D or L forms follow the SMILES beside them. X1 = O=C(C(O)CCN[*:1])[*:2]; β3hS = N[C@@H](CO)CC(=O)O; Dab = NCC[C@H](N)C(=O)O
Known Hemolysis at 100 μM of a selection of compounds
Field: numeric (%). Do not append units.

C[C@@H]1NC(=O)[C@H](Cc2c[nH]cn2)NC(=O)[C@H](Cc2ccc(O)cc2)NC(=O)[C@@H]2CCCN2C(=O)[C@H]2CCCN2C(=O)[C@H](CCCCN)NC(=O)[C@H](CCC(N)=O)NC(=O)[C@H](Cc2ccc(O)cc2)NC(=O)[C@@H]2CSSC[C@H](NC1=O)C(=O)NCCC(O)C(=O)N[C@@H](C)C(=O)N1CCC[C@@H]1C(=O)N[C@@H](CCN)C(=O)N[C@@H](CCCNC(=N)N)C(=O)N[C@@H](Cc1ccc(O)cc1)C(=O)N2 (some centres unmarked) [compound 19] (cyclo(YHAC[X1]A[dP][Dab]RYCYQK[dP]P); disulfide 4-11)	1.8

Returns the measured Hemolysis at 100 μM for the input compound. Input: C[C@@H]1NC(=O)[C@H](Cc2c[nH]cn2)NC(=O)[C@H](Cc2ccc(O)cc2)NC(=O)[C@@H]2CCCN2C(=O)[C@H]2CCCN2C(=O)[C@H](CCCCN)NC(=O)[C@H](CCC(N)=O)NC(=O)[C@H](Cc2ccc(O)cc2)NC(=O)[C@@H]2CSSC[C@H](NC1=O)C(=O)N[C@@H](CO)CC(=O)N[C@@H](C)C(=O)N1CCC[C@@H]1C(=O)N[C@@H](CCN)C(=O)N[C@@H](CCCNC(=N)N)C(=O)N[C@@H](Cc1ccc(O)cc1)C(=O)N2 [compound 20] (cyclo(YHAC[β3hS]A[dP][Dab]RYCYQK[dP]P); disulfide 4-11)
0.6

----------
target_or_system: human CXCR4 (Homo sapiens, UniProt P61073)
Construct: expressed in transfected cells; host or cells: mouse pre-B cell line 300-19
Sequence (P61073 whole entry): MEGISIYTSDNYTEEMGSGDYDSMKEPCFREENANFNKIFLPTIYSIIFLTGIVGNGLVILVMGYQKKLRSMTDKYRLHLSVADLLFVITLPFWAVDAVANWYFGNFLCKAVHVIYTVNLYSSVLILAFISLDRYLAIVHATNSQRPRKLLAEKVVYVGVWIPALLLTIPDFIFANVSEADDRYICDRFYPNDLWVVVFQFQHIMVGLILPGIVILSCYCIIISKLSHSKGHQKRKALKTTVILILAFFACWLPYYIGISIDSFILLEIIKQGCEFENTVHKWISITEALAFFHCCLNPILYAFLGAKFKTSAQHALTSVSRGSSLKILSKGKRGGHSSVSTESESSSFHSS
assay: Ca2+-assay: CXCR4-antagonizing activity (SDF-1 induced calcium mobilization)
Format: cell-based
settings: mouse pre-B cell line 300-19 stably transfected with human CXCR4, read-out: IC50% [nM] ± SD, CXCR4 receptor
Positions of bridges follow the written chain, without caps; N, C: chain ends. Non-standard residues stand in square brackets, D forms with d. Residues, ends and D or L forms follow the SMILES beside them. Oic = O=C(O)[C@@H]1C[C@@H]2CCCC[C@@H]2N1; Dab = NCC[C@H](N)C(=O)O
measured_parameter: IC50 (nM)
Field: numeric (nM). Do not append units.

C[C@@H]1NC(=O)[C@H](Cc2c[nH]cn2)NC(=O)[C@H](Cc2ccc(O)cc2)NC(=O)[C@@H]2C[C@@H]3CCCC[C@@H]3N2C(=O)[C@H]2CCCN2C(=O)[C@H](CCCCN)NC(=O)[C@H](CCC(N)=O)NC(=O)[C@H](Cc2ccc(O)cc2)NC(=O)[C@@H]2CSSC[C@H](NC1=O)C(=O)N[C@@H](CO)C(=O)N[C@@H](C)C(=O)N1CCC[C@@H]1C(=O)N[C@@H](CCN)C(=O)N[C@@H](CCCNC(=N)N)C(=O)N[C@@H](Cc1ccc(O)cc1)C(=O)N2 [compound 16] (cyclo(ACSA[dP][Dab]RYCYQK[dP][Oic]YH); disulfide 2-9)	1.46

Next molecule, please.
Returns the measured IC50 for the input molecule. Input: C[C@@H]1NC(=O)[C@H](Cc2c[nH]cn2)NC(=O)[C@H](Cc2ccc(O)cc2)NC(=O)[C@@H]2CCCN2C(=O)[C@@H](Cc2ccc(O)cc2)N(C)C(=O)[C@H](CCCCN)NC(=O)[C@H](CCC(N)=O)NC(=O)[C@H](Cc2ccc(O)cc2)NC(=O)[C@@H]2CSSC[C@H](NC1=O)C(=O)N[C@@H](CO)C(=O)N[C@@H](C)C(=O)N1CCC[C@@H]1C(=O)N[C@@H](CCN)C(=O)N[C@@H](CCCNC(=N)N)C(=O)N[C@@H](Cc1ccc(O)cc1)C(=O)N2
0.33

Entry source: patent US8865656B2
